Where do these numbers come from? They come from PubChem BioAssay (NCI).

Test system: MCF7 breast
Procedure text: NCI-60 one-dose screen, 48 h (100 = growth as untreated, 0 = no growth, -100 = all killed)
Cond: 10 µM unless noted
About 83,000 compounds went through this panel and 20% of them were active in at least one assay; those are over-represented in the sample as a whole.
Classify by growth. Ranges: bottom range (below 30%), center range (30% to below 90%), top range (90% or more)

Cn1cc(-c2ccc(-c3cn(C)c4ncccc34)[nH]2)c2cccnc21    center range
COc1ccc(C(=O)c2sc3nc4c(cc3c2N)CCCC4)cc1OC    bottom range
CC[C@@H](C)OC(=O)c1nn(C(C)=O)c2ccccc12    center range
O=C(Nc1cccc2[nH]c(C(F)(F)F)nc12)c1ccc(Br)cc1F    bottom range
COc1ccc(C(=O)c2sc3nc4c(c(C(F)(F)F)c3c2N)CN(C(C)=O)CC4)cc1OC    center range

Incoming: Hello team, could you let me know which band the following compound falls into: `O=C(O)c1ccc(=O)[nH]n1`
Outgoing: top range

Incoming: Hello team, could you let me know which band the following compound falls into: `COc1cc2c(cc1O)CCc1cc(O)cc(OC)c1-2`
Outgoing: top range

Incoming: Class for CCN(CC)CCCC(C)N/C(=C1\C(=O)NC(=O)\C1=C(/NC(C)CCCN(CC)CC)c1cccc(OC)c1)c1cccc(OC)c1 (stereo unspecified) ?
Outgoing: bottom range
